- procedure.details: solvent given as SMILES
- settings: in CCCCCC
Each record gets a class by solvation free energy, 298 K: lower segment = under -6 kcal/mol, middle segment = from -6 kcal/mol up to -4 kcal/mol, upper segment = -4 kcal/mol and over

CCc1ccccc1O: lower segment

Query: Sort `O=O` into one of the categories.
Reply: upper segment

Query: Try this compound next: `FS(F)(F)(F)(F)F`
Reply: upper segment

Query: Try this compound next: `O=C1CCCCC1`
Reply: middle segment

Query: Try this compound next: `CCCCCCCO`
Reply: middle segment

Query: Try this compound next: `Fc1ccccc1`
Reply: middle segment

Query: Try this compound next: `CC(C)CC(C)C`
Reply: middle segment

Query: Try this compound next: `CN(C)C`
Reply: upper segment

Query: Try this compound next: `Brc1ccccc1`
Reply: middle segment

Query: Try this compound next: `ClC(Cl)(Cl)Cl`
Reply: middle segment

Query: Try this compound next: `c1ccc2c(c1)Nc1ccccc1S2`
Reply: lower segment

Query: Try this compound next: `C=C`
Reply: upper segment

Query: Try this compound next: `COC(C)=O`
Reply: upper segment

Query: Try this compound next: `CC(C)(C)C`
Reply: upper segment

====

I'd appreciate it if you could supply solvation free energy, 298 K values for the items below.
- procedure.details: solvent given as SMILES
- settings: in OCCOCCOCCOCCO
One number for each entry, in kcal/mol.

Known results for compounds:
c1ccccc1: -3.56
C=CCCCCCCCC: -3.78
Cc1ccccc1: -3.99
C1CCCCC1: -2.34

Now for a further compound.
Query: State the recorded solvation free energy, 298 K for this entry: `C=CCCCCC`
Reply: -2.4

====

- procedure.details: solvent given as SMILES
- settings: in CCCCOC(C)=O
I'd appreciate it if you could supply solvation free energy, 298 K values for the items below.
Give bare numbers, in kcal/mol.

Known results for compounds:
c1ccccc1: -3.87
O=C1c2ccccc2C(=O)c2c(Cl)cccc21: -14
CCCO: -4.65
Cc1ccccc1C: -6.22
COC(=O)c1ccc(O)cc1: -11.8

Please report solvation free energy, 298 K for every entry that follows.
1. O=C(O)c1cc([N+](=O)[O-])cc([N+](=O)[O-])c1
2. CC(C)CC(C)C

Reply:
1. -13.9
2. -3.81

====

- procedure.details: solvent given as SMILES
- settings: in CCCO
value.type: solvation free energy, 298 K (kJ/mol)
Give bare numbers, in kJ/mol.

CC(C(=O)O)c1ccc(-c2ccccc2)c(F)c1 (stereo unspecified): -66.2

Please report solvation free energy, 298 K for every entry that follows.
1. C1CCCC1
2. O=C=O
3. O=C(C(=O)c1ccccc1)c1ccccc1
4. O=[N+]([O-])c1ccc(CCl)cc1
5. C=C(C)C1CCC2(CO)CCC3(C)C(CCC4C5(C)CCC(O)C(C)(C)C5CCC43C)C12 (stereo unspecified)

Reply:
1: -12.1; 2: -2.01; 3: -46.3; 4: -35.7; 5: -116

====

- procedure.details: solvent given as SMILES
- settings: in ClC(Cl)Cl
I'd appreciate it if you could supply solvation free energy, 298 K values for the items below.
Give the number first and the unit second.

Please report solvation free energy, 298 K for every entry that follows.
1. CC(C)CC(C)C
2. CN(C)C(=O)Nc1ccc(Cl)c(Cl)c1
3. CN
4. Cc1ccccc1
5. ClC(Cl)(Cl)Cl
6. CCBr
7. c1ccc2c(c1)-c1cccc3cccc-2c13

Reply:
1. -4.17 kcal/mol
2. -14.5 kcal/mol
3. -3.16 kcal/mol
4. -5.53 kcal/mol
5. -4.43 kcal/mol
6. -3.77 kcal/mol
7. -13 kcal/mol
